Hi! I'm sharing some IC50 results obtained with MKK4 (Homo sapiens, UniProt P45985).

Examples from the recorded data:
>>> print(df.to_string())
                                   compound  parameter      test_value
0  CCCS(=O)(=O)Nc1ccc(F)c(C(=O)c2c[nH]c3ncc(N4CC(C(=O)O)C4)cc23)c1F [Example 137]       IC50  100 to 1000 nM
1  CCCS(=O)(=O)Nc1c(F)ccc(C(=O)c2c[nH]c3ncc(C4CCC4)cc23)c1F [Example 239]       IC50        < 100 nM
2  O=C(c1ccc(F)c(NS(=O)(=O)CCC(F)(F)F)c1F)c1c[nH]c2ncc(-c3cnc(N4CCC4)nc3)cc12 [Example 180]       IC50        < 100 nM

Would you kindly look at the next entry?
Sure, the documented IC50 for CCCS(=O)(=O)Nc1c(F)ccc(C(=O)c2c[nH]c3ncc(-c4cnc(OCCCN(C)C)nc4)cc23)c1F [Example 200] is 1000 to 10000 nM

* * *

Target: MKK7 (Homo sapiens, UniProt O14733)
Sequence (O14733 1-419): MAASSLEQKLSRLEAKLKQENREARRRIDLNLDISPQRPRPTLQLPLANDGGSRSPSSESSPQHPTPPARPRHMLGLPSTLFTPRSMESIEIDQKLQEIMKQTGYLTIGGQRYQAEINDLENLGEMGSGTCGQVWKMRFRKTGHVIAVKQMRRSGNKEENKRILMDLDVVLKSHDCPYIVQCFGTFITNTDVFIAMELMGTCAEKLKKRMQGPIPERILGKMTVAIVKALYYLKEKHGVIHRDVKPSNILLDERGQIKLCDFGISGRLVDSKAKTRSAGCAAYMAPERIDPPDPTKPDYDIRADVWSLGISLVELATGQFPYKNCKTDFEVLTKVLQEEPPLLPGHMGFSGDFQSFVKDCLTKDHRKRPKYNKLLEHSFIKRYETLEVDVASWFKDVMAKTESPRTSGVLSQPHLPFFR
Assay: KINOMEscan competition binding assay, MKK7
Parameters: M1/R419; host or cells: HEK-293
Details: ratio PoC (off-target)/PoC (MKK4)
parameter: selectivity based on % Ctrl @100 nM vs. MKK7

Examples from the recorded data:
                               smiles_entry                    target_under_test             test_value
0  COc1ccc(-c2cnc3[nH]cc(C(=O)c4cccc(NS(=O)(=O)Cc5ccccc5)c4F)c3c2)c(Cl)c1  MKK7 (Homo sapiens, UniProt O14733)  ++ (100 ≥ ratio > 10)
1  CNc1ncc(-c2cnc3[nH]cc(C(=O)c4ccc(F)c(NS(=O)(=O)CCC(F)(F)F)c4F)c3c2)cn1  MKK7 (Homo sapiens, UniProt O14733)      +++ (Ratio > 100)
2  CCCS(=O)(=O)Nc1ccc(F)c(C(=O)c2c[nH]c3ncc(-c4nc[nH]n4)cc23)c1F  MKK7 (Homo sapiens, UniProt O14733)  ++ (100 ≥ ratio > 10)
3  CCCS(=O)(=O)Nc1ccc(F)c(C(=O)c2c[nH]c3ncc(-c4ccc(S(N)(=O)=O)nc4)cc23)c1F  MKK7 (Homo sapiens, UniProt O14733)      +++ (Ratio > 100)
4  O=C(c1ccc(F)c(NS(=O)(=O)CCC(F)(F)F)c1F)c1c[nH]c2ncc(-c3cnc(N4CCC4)nc3)cc12  MKK7 (Homo sapiens, UniProt O14733)      +++ (Ratio > 100)

Would you kindly look at the next entry?
Sure, the documented selectivity based on % Ctrl @100 nM vs. MKK7 for `CCCS(=O)(=O)Nc1c(F)ccc(C(=O)c2c[nH]c3ncc(-c4ccc(N5CCC5)nc4)cc23)c1F` is +++ (Ratio > 100)

* * *

molecular target: MKK7 (Homo sapiens, UniProt O14733); experiment: 33PanQinase enzyme assay, MKK7; assay type: biochemical; parameters: purchased ProQinase GmbH, Freiburg, Germany (33PanQinase Assay Service); settings: ratio IC50(MKK7)/IC50(MKK4)
parameter: Selectivity IVIKK7, IC50(off-target)/IC50(MKK4)

>>> df
                               smiles_entry                    target_under_test  test_value
0  CCCS(=O)(=O)Nc1ccc(F)c(C(=O)c2c[nH]c3ncc(-c4cnc[nH]4)cc23)c1F  MKK7 (Homo sapiens, UniProt O14733)         ++·

* * *

target: JNK1 (Homo sapiens, UniProt P45983); assay: KINOMEscan competition binding assay, JNK1; design: M1/Q384; host or cells: HEK-293; conditions: ratio PoC (off-target)/PoC (MKK4)
Sequence (P45983 1-384 isoform P45983-2): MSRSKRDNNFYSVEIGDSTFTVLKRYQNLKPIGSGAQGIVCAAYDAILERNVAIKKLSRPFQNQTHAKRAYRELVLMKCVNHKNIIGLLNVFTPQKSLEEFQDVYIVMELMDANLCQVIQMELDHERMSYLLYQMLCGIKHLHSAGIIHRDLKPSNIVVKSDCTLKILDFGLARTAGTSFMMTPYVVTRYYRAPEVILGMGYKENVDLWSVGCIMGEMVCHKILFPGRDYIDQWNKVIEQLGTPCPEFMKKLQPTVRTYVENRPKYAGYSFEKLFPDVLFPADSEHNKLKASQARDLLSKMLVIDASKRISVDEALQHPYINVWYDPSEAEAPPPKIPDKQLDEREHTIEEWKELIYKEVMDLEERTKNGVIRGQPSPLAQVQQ
parameter: selectivity based on % Ctrl @100 nM vs. JNK1

Examples from the recorded data:
In [3]: df
Out[3]:
                                   compound             test_value
0  CCCS(=O)(=O)Nc1c(Cl)ccc(C(=O)c2c[nH]c3ncc(-c4ccc(Cl)cc4)cc23)c1F [Example 2d]     + (10 ≥ ratio > 3)
1  CCCS(=O)(=O)Nc1ccc(F)c(C(=O)c2c[nH]c3ncc(C4CCC4)cc23)c1F [Example 123]      +++ (Ratio > 100)
2  CCCS(=O)(=O)Nc1ccc(Br)c(C(=O)c2c[nH]c3ncc(-c4ccc(Cl)cc4)cc23)c1F [Example 60]  ++ (100 ≥ ratio > 10)
3  O=C(c1ccc(F)c(NS(=O)(=O)CCC(F)(F)F)c1F)c1c[nH]c2ncc(-c3cnc(NC4CC4)nc3)cc12 [Example 182]      +++ (Ratio > 100)
4  CCCS(=O)(=O)Nc1c(F)ccc(C(=O)c2c[nH]c3ncc(-c4ccc(C(F)(F)F)nc4)cc23)c1F [Example 230]      +++ (Ratio > 100)

Sure, the documented selectivity based on % Ctrl @100 nM vs. JNK1 for CCCS(=O)(=O)Nc1ccc(F)c(C(=O)c2c[nH]c3ncc(-c4ccc5ccoc5c4)cc23)c1F [Example 52] is ++ (100 ≥ ratio > 10)

Sure, the documented selectivity based on % Ctrl @100 nM vs. JNK1 for CCCS(=O)(=O)Nc1ccc(F)c(C(=O)c2c[nH]c3ncc(-c4csc(SC)n4)cc23)c1F [Example 87] is ◯ (3 ≥ Ratio)

Sure, the documented selectivity based on % Ctrl @100 nM vs. JNK1 for CCCS(=O)(=O)Nc1c(F)ccc(C(=O)c2c[nH]c3ncc(-c4ccc(C)nc4)cc23)c1F [Example 229] is +++ (Ratio > 100)

Sure, the documented selectivity based on % Ctrl @100 nM vs. JNK1 for O=C(c1cccc(NS(=O)(=O)Cc2ccccc2)c1F)c1c[nH]c2ncc(-c3ccc(Cl)cc3)cc12 [Example 124] is ++ (100 ≥ ratio > 10)

Sure, the documented selectivity based on % Ctrl @100 nM vs. JNK1 for O=C(c1ccc(F)c(NS(=O)(=O)CCC(F)(F)F)c1F)c1c[nH]c2ncc(-c3ccc(C(F)(F)F)nc3)cc12 [Example 148] is +++ (Ratio > 100)

* * *

molecular target: MKK4 (Homo sapiens, UniProt P45985); construct: S84/D399; host or cells: HEK-293; test: KINOMEscan competition binding assay, MKK4; settings: residual percent of control binding (PoC) at 100 nM
Sequence (P45985 84-399): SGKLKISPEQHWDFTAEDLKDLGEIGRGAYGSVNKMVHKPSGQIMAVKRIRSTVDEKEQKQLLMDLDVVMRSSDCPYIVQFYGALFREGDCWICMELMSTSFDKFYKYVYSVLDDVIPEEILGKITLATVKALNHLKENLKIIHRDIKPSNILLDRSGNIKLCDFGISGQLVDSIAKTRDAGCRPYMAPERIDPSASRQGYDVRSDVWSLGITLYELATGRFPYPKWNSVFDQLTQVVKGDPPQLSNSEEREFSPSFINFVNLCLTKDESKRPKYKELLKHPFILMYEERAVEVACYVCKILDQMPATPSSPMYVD
parameter: MKK4 [% Ctrl @ 100 nM

                                   compound              parameter        test_value
0  CCCS(=O)(=O)Nc1ccc(C#N)c(C(=O)c2c[nH]c3ncc(-c4ccc(Cl)cc4)cc23)c1C#N [Example 62]  MKK4 [% Ctrl @ 100 nM      ◯ (30 ≤ PoC)
1  Cc1ccc(CS(=O)(=O)Nc2ccc(F)c(C(=O)c3c[nH]c4ncc(-c5ccc(Cl)cc5)cc34)c2F)cc1 [Example 38]  MKK4 [% Ctrl @ 100 nM  + (3 ≤ PoC < 30)
2  CCCS(=O)(=O)Nc1ccc(F)c(C(=O)c2c[nH]c3ncc(-c4ccn[nH]4)cc23)c1F [Example 84]  MKK4 [% Ctrl @ 100 nM     +++ (PoC < 1)
3  CCCCS(=O)(=O)Nc1ccc(F)c(C(=O)c2c[nH]c3ncc(-c4ccc(F)cc4C)cc23)c1F [Example 19]  MKK4 [% Ctrl @ 100 nM  + (3 ≤ PoC < 30)

Would you kindly look at the next entry?
Sure, the documented MKK4 [% Ctrl @ 100 nM for CCCS(=O)(=O)Nc1c(F)ccc(C(=O)c2c[nH]c3ncc(-c4ccc(C5CC5)nc4)cc23)c1F [Example 159] is +++ (PoC < 1)

* * *

biological target: BRaf (Homo sapiens); construct: purchased ProQinase GmbH, Freiburg, Germany (33PanQinase Assay Service); assay: KINOMEscan competition binding assay, BRaf; settings: ratio PoC (off-target)/PoC (MKK4)
Sequence (P15056 whole entry, species assumed): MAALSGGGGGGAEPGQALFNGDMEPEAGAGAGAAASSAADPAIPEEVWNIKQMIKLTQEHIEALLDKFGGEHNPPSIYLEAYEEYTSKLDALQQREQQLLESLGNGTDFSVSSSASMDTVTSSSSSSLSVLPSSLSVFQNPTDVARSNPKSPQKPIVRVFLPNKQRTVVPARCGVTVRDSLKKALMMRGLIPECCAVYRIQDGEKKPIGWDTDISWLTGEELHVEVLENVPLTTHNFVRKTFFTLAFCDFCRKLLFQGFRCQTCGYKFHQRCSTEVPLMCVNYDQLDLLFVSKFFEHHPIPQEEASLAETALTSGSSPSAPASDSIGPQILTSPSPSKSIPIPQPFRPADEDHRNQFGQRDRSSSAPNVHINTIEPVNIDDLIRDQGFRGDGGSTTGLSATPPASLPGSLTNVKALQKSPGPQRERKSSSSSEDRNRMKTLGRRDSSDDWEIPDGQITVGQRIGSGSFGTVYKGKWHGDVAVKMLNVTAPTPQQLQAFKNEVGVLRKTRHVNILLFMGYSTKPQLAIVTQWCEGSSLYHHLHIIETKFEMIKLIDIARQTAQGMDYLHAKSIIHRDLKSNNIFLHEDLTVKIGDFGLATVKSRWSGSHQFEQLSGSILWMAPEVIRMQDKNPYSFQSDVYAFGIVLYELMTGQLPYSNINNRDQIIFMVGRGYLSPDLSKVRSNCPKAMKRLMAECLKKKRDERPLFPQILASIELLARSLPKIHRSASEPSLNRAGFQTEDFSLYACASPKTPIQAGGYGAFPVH
parameter: selectivity based on % Ctrl @100 nM vs. Braf

Examples from the recorded data:
                                   molecule    target_under_test             test_value
0  CCCS(=O)(=O)Nc1cccc(C(=O)c2c[nH]c3ncc(-c4ccc(Cl)cc4)cc23)c1C#N  BRaf (Homo sapiens)          ◯ (3 ≥ Ratio)
1  CCCS(=O)(=O)Nc1ccc(F)c(C(=O)c2c[nH]c3ncc(-c4ccc(C(F)(F)F)cc4)cc23)c1F  BRaf (Homo sapiens)          ◯ (3 ≥ Ratio)
2  O=C(c1ccc(F)c(NS(=O)(=O)CCC(F)(F)F)c1F)c1c[nH]c2ncc(-c3cccnc3)cc12  BRaf (Homo sapiens)      +++ (Ratio > 100)
3  O=C(c1c(F)ccc(NS(=O)(=O)CCC(F)(F)F)c1F)c1c[nH]c2ncc(-c3ccc(N4CCOCC4)nc3)cc12  BRaf (Homo sapiens)      +++ (Ratio > 100)
4  CCCS(=O)(=O)Nc1ccc(F)c(C(=O)c2c[nH]c3ncc(C4CCC4)cc23)c1F  BRaf (Homo sapiens)  ++ (100 ≥ ratio > 10)
5  CCCS(=O)(=O)Nc1ccc(F)c(C(=O)c2c[nH]c3ncc(-c4ccc(OCC5COC(C)(C)O5)cc4Cl)cc23)c1F (centres unmarked)  BRaf (Homo sapiens)          ◯ (3 ≥ Ratio)

Sure, the documented selectivity based on % Ctrl @100 nM vs. Braf for `COc1ccc(-c2cnc3[nH]cc(C(=O)c4cccc(NS(=O)(=O)Cc5ccccc5)c4F)c3c2)c(Cl)c1` is ++ (100 ≥ ratio > 10)

Sure, the documented selectivity based on % Ctrl @100 nM vs. Braf for `CCCS(=O)(=O)Nc1ccc(C#N)c(C(=O)c2c[nH]c3ncc(-c4ccc(Cl)cc4)cc23)c1C#N` is ◯ (3 ≥ Ratio)

Sure, the documented selectivity based on % Ctrl @100 nM vs. Braf for `CCCS(=O)(=O)Nc1ccc(F)c(C(=O)c2c[nH]c3ncc(-c4ccccn4)cc23)c1F` is + (10 ≥ ratio > 3)

Sure, the documented selectivity based on % Ctrl @100 nM vs. Braf for `CCCS(=O)(=O)Nc1ccc(F)c(C(=O)c2c[nH]c3ncc(-c4ccc(C5CCC5)cc4)cc23)c1F` is +++ (Ratio > 100)

Sure, the documented selectivity based on % Ctrl @100 nM vs. Braf for `CCCS(=O)(=O)Nc1ccc(F)c(C(=O)c2c[nH]c3ncc(-c4cccc(OC)c4)cc23)c1F` is ◯ (3 ≥ Ratio)

Sure, the documented selectivity based on % Ctrl @100 nM vs. Braf for CCCS(=O)(=O)Nc1ccc(F)c(C(=O)c2c[nH]c3ncc(-c4ccc(OCC(O)CO)cc4)cc23)c1F (centres unmarked) is ◯ (3 ≥ Ratio)

Sure, the documented selectivity based on % Ctrl @100 nM vs. Braf for `CCCS(=O)(=O)Nc1ccc(F)c(C(=O)c2c[nH]c3ncc(C4=CCNCC4)cc23)c1F` is ◯ (3 ≥ Ratio)

Sure, the documented selectivity based on % Ctrl @100 nM vs. Braf for `CCCS(=O)(=O)Nc1ccc(F)c(C(=O)c2c[nH]c3ncc(-c4ccccc4OC)cc23)c1F` is ++ (100 ≥ ratio > 10)

Sure, the documented selectivity based on % Ctrl @100 nM vs. Braf for `CCCS(=O)(=O)Nc1ccc(Br)c(C(=O)c2c[nH]c3ncc(-c4ccc(Cl)cc4)cc23)c1Br` is ◯ (3 ≥ Ratio)

Sure, the documented selectivity based on % Ctrl @100 nM vs. Braf for `O=C(c1cccc(NS(=O)(=O)Cc2ccccc2)c1F)c1c[nH]c2ncc(-c3ccc(Cl)cc3)cc12` is ++ (100 ≥ ratio > 10)

Sure, the documented selectivity based on % Ctrl @100 nM vs. Braf for `CCCS(=O)(=O)Nc1c(F)ccc(C(=O)c2c[nH]c3ncc(-c4ccc(C)nc4)cc23)c1F` is +++ (Ratio > 100)

Sure, the documented selectivity based on % Ctrl @100 nM vs. Braf for `O=C(c1c(F)ccc(NS(=O)(=O)CCC(F)(F)F)c1F)c1c[nH]c2ncc(-c3ccc(N4CCS(=O)(=O)CC4)nc3)cc12` is +++ (Ratio > 100)

Sure, the documented selectivity based on % Ctrl @100 nM vs. Braf for `Cc1cccc(CS(=O)(=O)Nc2ccc(F)c(C(=O)c3c[nH]c4ncc(-c5ccc(Cl)cc5)cc34)c2F)c1` is + (10 ≥ ratio > 3)
